The following compounds are shown together with reported growth values.
# Tested on: SF-268 CNS
# Procedure summary: NCI-60 one-dose screen, 48 h (100 = growth as untreated, 0 = no growth, -100 = all killed)
# Condition: 10 µM unless noted
Compounds without any hit were thinned out: in the full panel of roughly 83,000, 20% have a hit.
Write down the numeric answer in % and omit the unit.

See these solved cases before continuing.
1. N#Cc1c(-c2ccccc2)cc(-c2ccc(Nc3nc(Nc4ccc(Cl)cc4)nc(Nc4ccc(Cl)cc4)n3)cc2)nc1N ... 51.9
2. CCOCCNC1=C(Cl)C(=O)c2ccccc2C1=O ... 101
3. COc1ccc(Nc2nc(-c3cc(O)c(C)c(C)c3O)cs2)cc1 ... 64.7
4. Clc1ccc2c(c1)C(c1c[nH]c3ccccc13)(c1c[nH]c3ccccc13)CCO2 ... 71.5
5. O=C1C(=O)N(Cc2ccc(-c3ccccc3)cc2)c2ccc(OC(F)(F)F)cc21 ... 49.5

Lookup result for COc1ccc(/C=N/C2=C(C#N)C(c3ccccc3)c3ccc4ccccc4c3O2)cc1 (centres undefined) ; measured growth: 46.5

Lookup result for `C=C1C(=O)O[C@H]2[C@H]1CC/C(COC(=O)/C=C\C(=O)NCc1ccc(Cn3c(=O)sn(CCI)c3=O)cc1)=C\CC[C@@]1(C)O[C@@H]21` ; measured growth: 70.2

====

# Test system: A498 renal
# Procedure summary: NCI-60 one-dose screen, 48 h
# Condition: 10 µM unless noted
This is part of a sample that, as a whole, favours compounds with a hit. Of some 83,000 tested, about 20% had one in any assay. Activity calls are given as the source filed them. Rule for the calls: active = growth percent below 10; inactive = the rest.
Hi there, use one of these labels in your reply, thanks! t = active, f = inactive

Observe how each entry below is paired with its result.
1. Nc1ncc(-c2ccc3ncnc(Nc4cccc(Cl)c4)c3c2)cn1 ... t
2. COc1cc2nc3cc([N+](=O)[O-])ccc3c(NCCNCC(C)O)c2cc1OC (stereo not given) ... t
3. O=C(Nc1ccc(Oc2cccc(Cl)c2)c(Cl)c1)c1cnccn1 ... f

Which outcome did this test record for the compound COc1cc(C2c3cc(OC(C)=O)c(OC)cc3CC3C(=O)OCC32)ccc1OC(C)=O (stereo not given) ?
f

====

# System: UO-31 renal
# Procedure summary: NCI-60 one-dose screen, 48 h (100 = growth as untreated, 0 = no growth, -100 = all killed)
# Condition: 10 µM unless noted
This is part of a sample that, as a whole, favours compounds with a hit. Of some 83,000 tested, about 20% had one in any assay.
Respond with Yes for growth values of 80% and above, No for values below.

Observe how each entry below is paired with its result.
1. O=C(/C=C/c1ccccc1)Nc1ncc(Cc2ccccc2Cl)s1 ... No
2. CNC(=O)c1[nH]cc(-c2ccc(OC)cc2)c1-c1cc(OC)c2c(c1OC)OCO2 ... Yes
3. S=c1sc2c(Cl)nc(-c3cccnc3)nc2n1-c1ccccc1 ... No

API: above_or_equal(metric=growth, cutoff=80%) for item `CN1C(=O)/C(=C\c2c(Cl)cccc2Cl)c2ccccc21`
No

API: above_or_equal(metric=growth, cutoff=80%) for item `N#Cc1c(-c2ccccc2)cc(-c2ccc(Nc3nc(Nc4ccc(Cl)cc4)nc(Nc4ccc(Cl)cc4)n3)cc2)nc1N`
No

====

# System: MALME-3M melanoma
# Procedure summary: NCI-60 one-dose screen, 48 h
# Condition: 10 µM unless noted
About 83,000 compounds went through this panel and 20% of them were active in at least one assay; those are over-represented in the sample as a whole. Active and inactive are the calls of the source. Rule for the calls: active = growth percent below 10; inactive = the rest.
Hi there, use one of these labels in your reply, thanks! active, inactive

Observe how each entry below is paired with its result.
1. COc1ccc(OC)c(Nc2nnc(-c3ccc(O)c(OC)c3)o2)c1 ... inactive
2. Cc1cc(N2CCN(CC(=O)Nc3ccc4c(ccn4C)c3)CC2)nc(N2CCCCCC2)n1 ... inactive
3. O=c1c2cnn(-c3ccccc3)c2n2c(CN3CCOCC3)nnc2n1-c1ccccc1 ... inactive
4. CCOC(=O)c1c(NC(=O)c2ccc(Cl)cc2)sc2c(CN(C)C)c(O)ccc12 ... inactive
5. Cc1ccc(C)n1-c1ccccc1-n1c(C)ccc1C ... inactive
6. COc1ccccc1N1CCCCC1 ... inactive
7. COC1=CC(c2ccc[nH]2)=N/C1=C\c1[nH]c(C)c(CC(=O)NCc2ccccc2)c1C ... active
8. COc1ccc2c(c1OC)CO[C@@H]2[C@H]1c2c(cc3c(c2OC)OCO3)CCN1S(=O)(=O)c1cn(C)cn1 ... inactive
9. COc1ccc(-c2cc(-c3cccnc3)nc3sc4c(=O)[nH]c(-c5ccc(Cl)cc5)nc4c23)cc1OC ... inactive

Which outcome did this test record for the compound `Clc1cc(Cl)c(Cl)c(-c2nnc(SCc3ccncc3Br)o2)c1` ?
inactive

====

# System: NCI-H322M lung
# Procedure summary: NCI-60 one-dose screen, 48 h (100 = growth as untreated, 0 = no growth, -100 = all killed)
# Condition: 10 µM unless noted
Compounds without any hit were thinned out: in the full panel of roughly 83,000, 20% have a hit.
Respond with 1 (yes) for growth values of 90% and above, 0 (no) for values below.

Observe how each entry below is paired with its result.
1) COc1ccc(-c2noc(C(=O)O)c2-c2cc(OC)c(OC)c(OC)c2)cc1 ... 0 (no)
2) COc1ccc2cc1Oc1ccc(cc1)C[C@H]1c3c(cc4c(c3Oc3cc5c(cc3OC)CCN(C)[C@@H]5C2)OCO4)CCN1C ... 0 (no)
3) CC(=O)N1N=C(c2ccc(Nc3nc(Nc4ccccc4)nc(Nc4ccccc4)n3)cc2)CC1c1ccccc1 (stereo not given) ... 0 (no)
4) CCN1C(=S)N(c2ccccc2)C2C1NN=c1s/c(=C3\C(=O)N(C(C)C)c4ccccc43)c(=O)n12 (stereo not given) ... 0 (no)
5) CC(=O)c1c(C)nc2ccccc2c1/C=C/c1ccc(F)cc1 ... 1 (yes)

Note: attention shifts to another entry.
API: above_or_equal(metric=growth, cutoff=90%) for item `CC/C(=C(/c1ccc(Cl)cc1)c1ccc(OCCN2CCCCC2)cc1)c1ccc(OC)cc1`
0 (no)

====

# Test system: MOLT-4 leukemia
# Procedure summary: NCI-60 one-dose screen, 48 h
# Condition: 10 µM unless noted
Compounds without any hit were thinned out: in the full panel of roughly 83,000, 20% have a hit. Calls of active or inactive are those of the source. How the source made its calls: active means growth percent below 10; inactive means the rest.
Hi there, use one of these labels in your reply, thanks! yes for active, no for inactive

Observe how each entry below is paired with its result.
1) O=C(NCCNc1nccc(Nc2ccc(S(=O)(=O)Nc3ccccn3)cc2)n1)c1cccc([N+](=O)[O-])c1 ... no
2) CN(C)CC(C)(C)C(=O)/C=C/c1ccccc1 ... yes
3) CCSC(SCC)c1ccc(Cl)cc1 ... no

Which outcome did this test record for the compound `Nc1n[nH]c2cccc(C#Cc3cccc(C(=O)Nc4cc(C(F)(F)F)cc(C(F)(F)F)c4)c3)c12` ?
no

Which outcome did this test record for the compound `COc1ccc(/C=C(\C#N)n2nnc3cc(F)c(F)cc32)cc1` ?
no

Which outcome did this test record for the compound `COc1ccc(-c2cc(-c3cccnc3)nc3sc4c(=O)[nH]c(-c5ccc(Cl)cc5)nc4c23)cc1OC` ?
no

Which outcome did this test record for the compound `O=C(/C=C/c1cn(-c2ccccc2)nc1-c1ccc(Cl)cc1)c1ccc(F)cc1` ?
no

Which outcome did this test record for the compound `N#Cc1nc(-c2ccc(F)cc2)oc1S(=O)(=O)N1CCOCC1` ?
yes

Which outcome did this test record for the compound `O=C(/C=C/c1ccco1)Nc1ncc(Cc2cccc(C(F)(F)F)c2)s1` ?
no

Which outcome did this test record for the compound `O=C(CSc1nc2ccc([N+](=O)[O-])cc2[nH]1)Nc1ccc([N+](=O)[O-])cc1` ?
yes

====

# System: HT29 colon
# Procedure summary: NCI-60 one-dose screen, 48 h (100 = growth as untreated, 0 = no growth, -100 = all killed)
# Condition: 10 µM unless noted
The panel holds about 83,000 compounds, 20% with a hit somewhere; the sample as a whole holds those more often. The source made the active and inactive calls. The calls were made as follows: active = growth percent below 10; inactive = the rest.
The following compounds are shown together with reported growth values.

See these solved cases before continuing.
1) CC1CN(S(=O)(=O)c2oc(-c3ccc(Cl)cc3)nc2C#N)CC(C)O1 (stereo not given) ... 58.5% (inactive)
2) O=C(CN1C(=O)S/C(=C\C(Cl)=C\c2ccccc2)C1=O)NCCc1ccc(O)cc1 ... 16.6% (inactive)

Summary: Nc1ncnc2c1C(c1ccccc1)c1ccc3ccccc3c1O2 (stereo not given) , HT29 colon, growth = 92.5% (inactive)

Summary: `Cc1ccc(CNc2ccc3nc(CCC4CCCCC4)[nH]c3c2)cc1` , HT29 colon, growth = 9.91% (active)

Summary: `C=C1C(=O)O[C@H]2[C@H]1CC/C(COC(=O)/C=C\C(=O)NCc1ccc(Cn3c(=O)sn(CCI)c3=O)cc1)=C\CC[C@@]1(C)O[C@@H]21` , HT29 colon, growth = 26.3% (inactive)
